Value source: the supplement of paper PMC10201428

B1: library; a variant is named by its letters at N, in order (parent)
chain: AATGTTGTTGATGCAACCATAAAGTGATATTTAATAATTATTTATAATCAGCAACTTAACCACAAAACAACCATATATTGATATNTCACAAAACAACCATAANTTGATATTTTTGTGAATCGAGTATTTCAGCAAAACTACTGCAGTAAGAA

Variants of: B1
Test: relative integration efficiency (T-LR orientation) vs wild-type transposon end (log2 (normalized fold change)); transposon end mutated: left end; higher = more efficient transposition
Settings: with VchCAST RNA-guided transposition machinery (E. coli BL21(DE3) host, lacZ target)
Measure name: relative integration efficiency (log2)

{"Variant key": "TA A23G G24T A33T T76A A77G C87T T104A T110A T113A", "Observed value": 0.0613}
{"Variant key": "TA A16C G24T T32G A33C A70C T76A T86G A96C T110A T113A", "Observed value": -0.842}
{"Variant key": "TA A23G G24T A33T A70C T76A T86G T104G T113A", "Observed value": 0.529}
{"Variant key": "CG C89G A90T A91T A92T", "Observed value": -0.0713}
{"Variant key": "CG C17T", "Observed value": -0.0678}
{"Variant key": "CG T79A", "Observed value": -0.546}
{"Variant key": "CG A88T", "Observed value": 0.112}
{"Variant key": "CG A47C", "Observed value": -0.251}
{"Variant key": "CT", "Observed value": 0.219}
{"Variant key": "CG T100A A101T", "Observed value": -0.623}
{"Variant key": "CG T20G A21C A22C A23C", "Observed value": -2.4}
{"Variant key": "CG A91T A92T A93T C94G", "Observed value": -1.3}
{"Variant key": "CG A64G", "Observed value": -0.0623}
{"Variant key": "CG A36G T42C A62G A65G A66C", "Observed value": -0.297}
{"Variant key": "CG A92T A93T", "Observed value": -0.29}
{"Variant key": "CG A54G", "Observed value": 0.358}
{"Variant key": "CA T104G T113A", "Observed value": -0.00439}
{"Variant key": "CA G24A T30A A102T T111C T113C", "Observed value": 0.116}
{"Variant key": "CG A21C", "Observed value": -1.47}
{"Variant key": "CG A34C T35C A36G T38C A40G T42C A44G T45C A46C A62G A65G A66C", "Observed value": -1.11}
{"Variant key": "CG T86A C87G", "Observed value": 0.622}
{"Variant key": "CG A23C", "Observed value": 0.494}
{"Variant key": "CG C89A", "Observed value": 0.447}
{"Variant key": "CG A36T", "Observed value": 0.0771}
{"Variant key": "TA A70C T76A T84A C87A A96C T112G T113C", "Observed value": -0.389}
{"Variant key": "TA A23G G24T A33T T76A T78A T84A C87A T104G T113A", "Observed value": 0.315}
{"Variant key": "CG A88C C89A A90C A91C", "Observed value": -0.0905}
